Measured kon accompanies every entry in the list below.
# systemUnderTest: T1, recombinant human OX40-his (Sino Biological, Cat#:10481-H03H) (human, UniProt P43489 29-214)
# T1 construct: bought protein; also called hOX40-his; not shown: His tag
# T1 sequence: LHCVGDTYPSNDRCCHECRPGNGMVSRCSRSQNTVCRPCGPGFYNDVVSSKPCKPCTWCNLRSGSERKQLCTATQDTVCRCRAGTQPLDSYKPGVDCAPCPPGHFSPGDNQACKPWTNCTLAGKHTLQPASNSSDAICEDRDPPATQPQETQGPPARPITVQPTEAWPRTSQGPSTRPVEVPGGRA
# protocolNotes: SPR Biacore 8K, OX40-His on chip, antibody injected
Value expressed in M⁻¹ s⁻¹; do not type the unit.

Completed entries (count: 2):
Input: // Input: 71H8-VH2VL2 (antibody, human IgG1, kappa, V domains shown, humanized; also called 71H8-H2L2) VH: QVQLVQSGAEVKKPGASVKVSCKVSGYTFTSYWITWVRQRPGKGLEWMGDIYPGSGSTNQNEKFKSRVTMTVDTSTDTAYMELSSLRSEDTAVYYCATLRPYYFVYWGQGTLVTVSS VL: DIQMTQSPSSLSASVGDRVTITCRASQDISNYLNWYQQKPGKTPKLLIYYTSRLLSGVPSRFSGSGSGTDYTLTISSLQPEDFATYYCQQGNTLPLTFGQGTRLEIKR . Output its kon only.
Output: 358000

Input: // Input: 71H8-VH2VL3 (antibody, human IgG1, kappa, V domains shown, humanized; also called 71H8-H2L3; 71H8H2L3) VH: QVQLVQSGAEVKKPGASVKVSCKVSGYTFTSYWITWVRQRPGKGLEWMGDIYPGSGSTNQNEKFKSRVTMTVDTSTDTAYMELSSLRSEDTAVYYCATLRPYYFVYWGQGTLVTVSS VL: DIQMTQSPSSLSASVGDRVTITCRASQDISNYLNWYQQKPGKTVKLLIYYTSRLLSGVPSRFSGSGSGTDYTLTISSLQPEDFATYFCQQGNTLPLTFGQGTRLEIKR . Output its kon only.
Output: 434000

Next, consider the following binder.
Input: // Input: 68C8-VH2VL3 (antibody, human IgG1, kappa, V domains shown, humanized; also called 68C8-H2L3; 68C8H2L3) VH: QVQLVQSGAEVKKPGASVKVSCKVSGDTFTSYWITWVRQRPGKGLEWMGDIHPGSGSTNNNEKFKNRVTMTVDTSTDTAYMELSSLRSEDTAVYYCATLRPYYFVYWGQGTLVTVSS VL: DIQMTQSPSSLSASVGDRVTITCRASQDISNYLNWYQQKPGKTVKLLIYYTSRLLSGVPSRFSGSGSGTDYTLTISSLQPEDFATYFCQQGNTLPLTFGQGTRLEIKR . Output its kon only.
Output: 473000
